Assay: acute toxicity (LD50)
Details: rat, in vivo, sc, rats

| MOL | LD50 / mg/kg |
| --- | --- |
| CCSc1c(N)cnc2ccccc12.Cl | 320 |

Just for reference, patent US4921861A is where these values come from.
